# measured on: 5-hydroxytryptamine receptor 1B (Rattus norvegicus)
# Sequence (P28564 whole entry): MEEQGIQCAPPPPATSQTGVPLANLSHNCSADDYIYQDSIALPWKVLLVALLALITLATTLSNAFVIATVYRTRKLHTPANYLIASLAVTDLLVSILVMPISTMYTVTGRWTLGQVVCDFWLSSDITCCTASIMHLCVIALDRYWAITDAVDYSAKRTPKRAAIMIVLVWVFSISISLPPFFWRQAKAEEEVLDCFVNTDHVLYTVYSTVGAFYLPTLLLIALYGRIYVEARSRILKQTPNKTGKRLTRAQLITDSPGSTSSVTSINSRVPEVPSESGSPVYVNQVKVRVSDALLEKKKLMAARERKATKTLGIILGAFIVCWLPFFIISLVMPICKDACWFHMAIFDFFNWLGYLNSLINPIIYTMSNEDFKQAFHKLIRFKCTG
# experiment description: Ability to displace the radioligand [125I](-)-iodocyanopindolol from rat striatal 5-hydroxytryptamine 1B receptor
pKi: −log10 of the molar value.
property measured: pKi

Prompt: What pKi appears in the records for this compound with 5-hydroxytryptamine receptor 1B (Rattus norvegicus)? O=C1Nc2cccc3c2C1(CCCCN1CCc2sccc2C1)CCC3 (stereo unspecified)
Completion: < 6.00

---

List of Log Ki values.
# measured on: Serotonin 2 (5-HT2) receptor (Rattus norvegicus, UniProt P30994+P08909+P14842)
# experiment description: Ability to displace the radioligand [3H]ketanserin from 5-hydroxytryptamine 2 receptor of rat cerebral cortex membrane
# Type: tissue-based
Quick one: just the number, no unit, thanks!

Reference set (4 entries):
CCN1C(=O)C2(CCCCN3CCc4sccc4C3)CCCc3cccc1c32 (stereo unspecified) ... -6.31
CN1C(=O)C2(CCCCN3CCc4sccc4C3)CCCc3cccc1c32 (stereo unspecified) ... -6.02
O=C1Nc2cccc3c2C1(CCCCN1CCc2ccccc2C1)CCC3 (stereo unspecified) ... -6.21
O=C1Nc2cccc3c2C1(CCCCN1CCc2sccc2C1)CCC3 (stereo unspecified) ... -6.08

Okay, next one:
Prompt: Please look up its Log Ki: O=C1Nc2cccc3c2C1(CCCCCN1CCc2ccccc2C1)CCC3 (stereo unspecified)
Completion: -6.16
